test system: CD2F1 mice, L1210 leukemia ip, survival T/C; assay: NCI In Vivo Anticancer Drug Screen. Data for tumor model L1210 Leukemia (intraperitoneal) in CD2F1 (CDF1) mice; conditions: endpoint: mean survival time; dose: 400.0 mg/kg/injection; schedule: Q01DX009 (ip); vehicle: saline with Tween-80; higher = longer survival
Inconclusive results and toxic doses are left out.
EXPERIMENTAL_ENDPOINT: T/C

Query :: Recorded T/C for CC(=O)N1NC2C(=O)N(C3CCCCC3)CC2C1c1ccccc1 (stereo unspecified) , please?
Result :: 93 % of control

Query :: Recorded T/C for OCCOc1cccc(OCCO)c1 , please?
Result :: 115 % of control

Query :: Recorded T/C for O=c1c(Cl)cc(Cl)cn1S(=O)(=O)c1ccc([N+](=O)[O-])cc1 , please?
Result :: 98 % of control

Query :: Recorded T/C for Cc1cc2nc(-c3ccccc3)c(-c3ccccc3)nc2cc1C , please?
Result :: 93 % of control

Query :: Recorded T/C for C[Si](C)(C)Oc1c(Cl)cc(Cl)cc1Cl , please?
Result :: 87 % of control

Query :: Recorded T/C for CC(C)(C)C(=O)C(Br)S(=O)(=O)C(Br)(Br)C(=O)C(C)(C)C (stereo unspecified) , please?
Result :: 95 % of control

###

test system: CD2F1 mice, L1210 leukemia ip, survival T/C; assay: NCI In Vivo Anticancer Drug Screen. Data for tumor model L1210 Leukemia (intraperitoneal) in CD2F1 (CDF1) mice; settings: endpoint: mean survival time; dose: 50.0 mg/kg/injection; schedule: Q04DX002 (ip); vehicle: saline with Tween-80; higher = longer survival
Inconclusive results and toxic doses are left out.
EXPERIMENTAL_ENDPOINT: T/C

Query :: Recorded T/C for COc1ccc(NC(=O)Nc2ccccc2Cl)c(OC)c1 , please?
Result :: 87 % of control

Query :: Recorded T/C for O=C1O/C(=C2/OC(=O)c3ccccc32)c2ccccc21 , please?
Result :: 92 % of control

Query :: Recorded T/C for Oc1ccccc1C=NC1CCCCC1N=Cc1ccccc1O.[Ni] (stereo not given) , please?
Result :: 89 % of control

Query :: Recorded T/C for CCN=C(N)C(N)=NCC , please?
Result :: 96 % of control

Query :: Recorded T/C for COc1ccc(NC(=O)Nc2ccccc2C)c(OC)c1 , please?
Result :: 88 % of control

###

tested on: CD2F1 mice, L1210 leukemia ip, survival T/C; test: NCI In Vivo Anticancer Drug Screen. Data for tumor model L1210 Leukemia (intraperitoneal) in CD2F1 (CDF1) mice; conditions: endpoint: mean survival time; dose: 25.0 mg/kg/injection; schedule: Q01DX009 (ip); vehicle: water; higher = longer survival
Toxic doses and inconclusive results are not listed.
Answer each item with its documented T/C.

Query :: Recorded T/C for CCOC(=O)C1C(=O)N(c2ccccc2)C(=O)N1C (stereo not given) , please?
Result :: 93 % of control

Query :: Recorded T/C for CC(=O)C1CC(=O)c2c(O)ccc(O)c2C1 (stereo not given) , please?
Result :: 101 % of control

Query :: Recorded T/C for CCOC(=O)C(NC(N)=O)C(=O)OCC , please?
Result :: 91 % of control

Query :: Recorded T/C for CC(=O)Oc1ccc(N2C(=O)C3C(C2=O)C2c4ccccc4C3C3CCCCN32)cc1 (stereo not given) (tested in a mixture with another compound) , please?
Result :: 101 % of control

Query :: Recorded T/C for CC(=O)ON1C(=O)C2C3C=CC(O3)C2C1=O (stereo not given) , please?
Result :: 91 % of control

###

Answer each item with its documented T/C.
Tested on: CD2F1 mice, L1210 leukemia ip, survival T/C
Assay: NCI In Vivo Anticancer Drug Screen. Data for tumor model L1210 Leukemia (intraperitoneal) in CD2F1 (CDF1) mice
Settings: endpoint: mean survival time; dose: 400.0 mg/kg/injection; schedule: Q04DX002 (ip); vehicle: saline with Tween-80; higher = longer survival
Protocol: The antitumor activity of compounds was measured in mice bearing transplantable tumors. Survival or tumor size were measured and the results are expressed as the measurement made in the treated group (T) divided by the measurement made in the vehicle treated control group (C). The tumor model used in this assay is L1210 Leukemia (intraperitoneal) in CD2F1 (CDF1) mice
Inconclusive results and toxic doses are left out.

Query :: Recorded T/C for COc1ccccc1N=Nc1c(O)n(-c2ccc(Cl)cc2)c(=S)n(-c2ccccc2)c1=O , please?
Result :: 102 % of control

Query :: Recorded T/C for O=C(O)c1c(Cl)ccc(F)c1Cl , please?
Result :: 94 % of control

Query :: Recorded T/C for CCOP(=S)(OCC)C(C)(C)C , please?
Result :: 95 % of control

Query :: Recorded T/C for CC(C)CC(C)(C)COP(=S)(OCC(C)(C)CC(C)C)OCC(C)(C)CC(C)C , please?
Result :: 102 % of control

Query :: Recorded T/C for COc1ccc(NC(=O)Nc2ccccc2C)c(OC)c1 , please?
Result :: 90 % of control

Query :: Recorded T/C for COC(=O)c1ccc(-n2cc(C(=O)OC)c([N+]#N)c2[O-])cc1 , please?
Result :: 107 % of control

###

Answer each item with its documented T/C.
system: CD2F1 mice, L1210 leukemia ip, survival T/C; assay: NCI In Vivo Anticancer Drug Screen. Data for tumor model L1210 Leukemia (intraperitoneal) in CD2F1 (CDF1) mice; details: endpoint: mean survival time; dose: 50.0 mg/kg/injection; schedule: Q04DX003 (ip); vehicle: saline; higher = longer survival
Toxic doses and inconclusive results are not listed.

Query :: Recorded T/C for CCCCCC(C)N (stereo not given) , please?
Result :: 97 % of control

Query :: Recorded T/C for CCCCCCCC(=O)N1CCCN(C(=O)CCCCCCC)C1 , please?
Result :: 95 % of control

Query :: Recorded T/C for CCc1ccc(O)cc1O , please?
Result :: 102 % of control

Query :: Recorded T/C for Cc1cc2nc3ccc(=[N+](C)C)cc-3sc2cc1N , please?
Result :: 102 % of control

Query :: Recorded T/C for CC1(C)N=C(N)N=C(N)N1c1ccc(CCCCc2ccc(S(=O)(=O)F)cc2Cl)c(Cl)c1 , please?
Result :: 103 % of control

###

Answer each item with its documented T/C.
test system: CD2F1 mice, L1210 leukemia ip, survival T/C; experiment: NCI In Vivo Anticancer Drug Screen. Data for tumor model L1210 Leukemia (intraperitoneal) in CD2F1 (CDF1) mice; details: endpoint: mean survival time; dose: 400.0 mg/kg/injection; schedule: Q04DX003 (ip); vehicle: Klucel (hydroxypropylcellulose) (HPC); higher = longer survival
Toxic doses and inconclusive results are not listed.

Query :: API: value(readout=T/C, system=CD2F1 mice, L1210 leukemia ip, survival T/C) for record O=C1C2C3C=CC(C3)C2C(=NS(=O)(=O)c2ccccc2)C2C3C=CC(C3)C12 (configuration not stated)
Result :: 91 % of control

Query :: API: value(readout=T/C, system=CD2F1 mice, L1210 leukemia ip, survival T/C) for record CCOC(=N)c1ccccc1
Result :: 105 % of control

Query :: API: value(readout=T/C, system=CD2F1 mice, L1210 leukemia ip, survival T/C) for record Cc1ccc(-c2nc(SCc3ccccc3)[nH]c(=O)c2CCO)cc1
Result :: 91 % of control

Query :: API: value(readout=T/C, system=CD2F1 mice, L1210 leukemia ip, survival T/C) for record O=C(O)C(=CCc1cccc2ccccc12)C(=O)O
Result :: 103 % of control

Query :: API: value(readout=T/C, system=CD2F1 mice, L1210 leukemia ip, survival T/C) for record BrCCCCCCCCCCC1(c2ccccc2)OCCO1
Result :: 95 % of control

Query :: API: value(readout=T/C, system=CD2F1 mice, L1210 leukemia ip, survival T/C) for record C#CCOC(=O)NC1CCCCC1
Result :: 102 % of control

Query :: API: value(readout=T/C, system=CD2F1 mice, L1210 leukemia ip, survival T/C) for record CN1C(/C(C(=O)C(F)(F)F)=C(\O)C(F)(F)F)=NCc2ccccc21
Result :: 98 % of control

###

system: CD2F1 mice, L1210 leukemia ip, survival T/C; test: NCI In Vivo Anticancer Drug Screen. Data for tumor model L1210 Leukemia (intraperitoneal) in CD2F1 (CDF1) mice; settings: endpoint: median survival time; dose: 50.0 mg/kg/injection; schedule: Q04DX002 (ip); vehicle: saline with Tween-80; higher = longer survival
Inconclusive results and toxic doses are left out.
Answer each item with its documented T/C.

Query :: API: value(readout=T/C, system=CD2F1 mice, L1210 leukemia ip, survival T/C) for record N#CC(=C1CCN(Cc2ccccc2)CC1)c1ccccc1
Result :: 100 % of control

Query :: API: value(readout=T/C, system=CD2F1 mice, L1210 leukemia ip, survival T/C) for record COC1=N/C=C/C=C\C/C=C/C1
Result :: 111 % of control

Query :: API: value(readout=T/C, system=CD2F1 mice, L1210 leukemia ip, survival T/C) for record CCCCOC(=O)/C=C\C(=O)OC(C)C(=O)OCCCC (stereo not given)
Result :: 100 % of control

Query :: API: value(readout=T/C, system=CD2F1 mice, L1210 leukemia ip, survival T/C) for record O=C1CN=C(c2ccccc2)O1
Result :: 100 % of control

Query :: API: value(readout=T/C, system=CD2F1 mice, L1210 leukemia ip, survival T/C) for record Cc1ccc(S(=O)(=O)N/N=C/Cc2c(C)cc(C)cc2C)cc1
Result :: 100 % of control

Origin of values: PubChem BioAssay AID256
